# Test target: GPR6 (Homo sapiens)
# Construct: expressed in transfected cells; 293 cells are used elsewhere
# Sequence (P46095 whole entry): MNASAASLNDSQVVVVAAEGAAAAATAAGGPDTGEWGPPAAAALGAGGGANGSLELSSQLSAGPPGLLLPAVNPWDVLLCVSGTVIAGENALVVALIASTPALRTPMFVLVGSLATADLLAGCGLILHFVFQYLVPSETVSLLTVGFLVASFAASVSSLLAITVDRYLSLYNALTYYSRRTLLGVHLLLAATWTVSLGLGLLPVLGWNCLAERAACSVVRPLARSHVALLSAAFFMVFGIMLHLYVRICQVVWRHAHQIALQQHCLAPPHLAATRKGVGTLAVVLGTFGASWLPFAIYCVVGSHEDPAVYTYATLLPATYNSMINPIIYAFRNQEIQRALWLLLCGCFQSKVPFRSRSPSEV
# Experiment notes: membrane-based cyclic AMP confirmation assay (Example 4C)
# Assay type: biochemical
# Assay context: mean +/- standard deviation (number of assays in brackets); read-out: IC50 Values Cyclic AMP Assay Example 4C
For each record, check the reported IC50: if it is below 300 nM write Met, else write Not met.

Task: Lab log: compare recorded IC50 with 300 nM; is it strictly lower for "CC(C)(C)c1ccc(C(=O)N=C2SSC3=NCCN32)cc1" ?
Result: Not met

Task: Try "COc1cccc(C(=O)N=C2SSC3=NCCN32)c1" next.
Result: Not met

Task: # iterate: "O=C(N=C1SSC2=NCCN21)c1ccc(C(F)(F)F)cc1"
Result: Met

Task: For "O=C(NC(=S)N1CCNC1=S)c1ccc(F)cc1F" then?
Result: Met

Task: Note, next up: "O=C(N=C1SSC2=NCCN21)c1ccco1"
Result: Met

Task: Param item: "O=C(N=C1SSC2=NCCN21)c1cccc(F)c1"
Result: Met

Task: Entry to check: "O=C(NC(=S)N1CCNC1=S)c1cc2ccccc2s1"
Result: Not met

Task: Another molecule to look at: "O=C(NC(=S)N1CCNC1=S)c1ccco1"
Result: Not met

Task: Field entry: "O=C(NC(=S)N1CCNC1=S)c1ccc(Cl)cc1"
Result: Not met

Task: Query "O=C(N=C1SSC2=NCCN21)c1cccnc1" next
Result: Met

Task: // repeat for "O=C(NC(=S)N1CCNC1=S)c1ccc2ccccc2c1" and report
Result: Not met

Task: Try "CSc1ncccc1C(=O)NC(=S)N1CCNC1=S" next.
Result: Not met

Task: Same for "O=C(N=C1SSC2=NCCN21)c1cc2ccccc2s1"
Result: Met

Task: Entry to check: "O=C(N=C1SSC2=NCCN21)c1ccccc1"
Result: Met

Task: Next entry: "COc1ccc(C(=O)N=C2SSC3=NCCN32)cc1"
Result: Met

Task: Now give it for "O=C(NC(=S)N1CCNC1=S)c1ccon1" too.
Result: Not met

Task: Field entry: "O=C(NC(=S)N1CCNC1=S)c1ccc(F)cc1"
Result: Not met

Task: Now consider "O=C(NC(=S)N1CCNC1=S)c1cccc2ccccc12" and answer again.
Result: Not met

Task: Next record, please: "O=C(N=C1SSC2=NCCN21)c1ccc(F)cc1F"
Result: Met

Task: One more molecule: "O=C(NC(=S)N1CCNC1=S)c1ccc(C(F)(F)F)cc1"
Result: Not met

Task: Now this one: "O=C(N=C1SSC2=NCCN21)c1cccs1"
Result: Met

Task: Again, but for "O=C(N=C1SSC2=NCCN21)c1ccc(Cl)cc1"
Result: Met

Task: Now the molecule "O=C(/N=C1\SSC2=NCCN21)c1cccc2ccccc12"
Result: Met

###

# Experiment notes: Food/water intake and body weight in 24-hour food deprived rats, oral gavage (PO)
# Format: in vivo, rat
# Assay context: 100 μmol/kg PO, second assay, Table D; vehicle 19.25
Classify: y when Body Weight Gain (g) (6 hr post administration) is strictly less than 10 g; n when Body Weight Gain (g) (6 hr post administration) is not.

Task: Confirm or reject: Body Weight Gain (g) (6 hr post administration) of "O=C(NC(=S)N1CCNC1=S)c1ccc2ccccc2c1" lies strictly below 10 g
Result: n

Task: Cool, now "O=C(/N=C1\SSC2=NCCN21)c1ccc2ccccc2c1"
Result: n

Task: Next: "O=C(N=C1SSC2=NCCN21)c1cc2ccccc2s1"
Result: n

Task: Same lookup for "O=C(N=C1SSC2=NCCN21)c1cccs1" , please.
Result: y

Task: One more molecule: "O=C(N=C1SSC2=NCCN21)c1cccc(F)c1"
Result: y
